Consider the following molecules; for each one, report its GI50.
Tested on: panel of 55 breast cancer cell lines
Assay: Cell growth inhibition assay (Cell Titer Glo, 72 h, 9 doses; GI50, TGI, LC50)
Format: cell-based, human
Settings: Homo sapiens, MDA-MB-415, cell line MDAMB415; read-out: GI50 (converted)
Give just the numeric value; µM need not be written.

// returns GI50 for CCNCCCNC/C=C\CNCCCNCC with panel of 55 breast cancer cell lines; value = 75.9

Considering Cc1cncc2cccc(S(=O)(=O)N3CCCN(C(=O)CN)C[C@@H]3C)c12 , its GI50 with panel of 55 breast cancer cell lines was recorded as 33.1

The molecule O=C1c2ccccc2-[n+]2ccc3c([nH]c4ccccc43)c21 on panel of 55 breast cancer cell lines: GI50 was 0.0603

Simply: COc1cc([C@@H]2c3cc4c(cc3[C@@H](O[C@@H]3O[C@@H]5CO[C@@H](C)O[C@H]5[C@H](O)[C@H]3O)[C@H]3COC(=O)[C@H]23)OCO4)cc(OC)c1O [Etoposide] , panel of 55 breast cancer cell lines, GI50 = 13.8

Reading of GI50 for COc1cc2ncnc(Nc3ccc(F)c(Cl)c3)c2cc1OCCCN1CCOCC1 with panel of 55 breast cancer cell lines: 7.41

Form: item COc1cccc2c1C(=O)c1c(O)c3c(c(O)c1C2=O)C[C@@](O)(C(=O)CO)C[C@@H]3O[C@H]1C[C@H](N)[C@@H](O)[C@H](C)O1 [Epirubicin] ; test system panel of 55 breast cancer cell lines; GI50: 0.263

Field GI50 (system: panel of 55 breast cancer cell lines) for entry COc1cccc2c1C(=O)c1c(O)c3c(c(O)c1C2=O)C[C@@](O)(C(=O)CO)C[C@@H]3O[C@H]1C[C@H](N)[C@H](O)[C@H](C)O1 = 0.372

Reading of GI50 for CC(C)C[C@H](NC(=O)[C@H](Cc1ccccc1)NC(=O)c1cnccn1)B(O)O with panel of 55 breast cancer cell lines: 0.0324
